# test.method.notes: cell viability loss over short exposure – CellTiter-Glo, 3 h, dry powder, cytotoxicity control for SR-BI HDL uptake inhibitor project, dose response (AID 540246)
# assay.conditions: ldlA[mSR-BI] CHO cells viability, CellTiter-Glo ATP, 3 h; at 35 µM (top of the series)
readout.name: activity change, negative = cytotoxicity (%)
Numeric only. Scale: %

Query block: Give the measured activity change, negative = cytotoxicity of C[C@H]1CN([C@@H](C)CO)C(=O)c2cccc(N(C)C)c2O[C@@H]1CN(C)Cc1ccc(Cl)c(Cl)c1 .
Result block: -9.85

Query block: Then O=C(Nc1cc(C(F)(F)F)ccc1Cl)c1ccccc1NS(=O)(=O)c1ccc(Cl)cc1 ?
Result block: 4.37

Query block: Then O=C(Nc1cccc(NC(=O)c2cc([N+](=O)[O-])ccc2Cl)n1)c1cc([N+](=O)[O-])ccc1Cl ?
Result block: -3.61

Query block: Then CNC[C@@H]1Oc2ccc(NC(=O)Cc3cn(C)c4ccccc34)cc2C(=O)N([C@H](C)CO)C[C@H]1C ?
Result block: -2.77

Query block: Then Cc1cc(C)n(CC(=O)NC2CCCc3c2cnn3-c2ccc(C)c(C)c2)n1 (stereo not drawn) ?
Result block: 0.308

Query block: Then Nc1ccc(C(=O)Nc2ccc(-c3nc4ccc(NC(=O)c5ccc(N)cc5)cc4[nH]3)cc2)cc1 ?
Result block: 11.1

Query block: Then C[C@H](CO)N1C[C@H](C)[C@H](CN(C)S(=O)(=O)c2ccc(F)cc2)Oc2ccc(NC(=O)CCC(F)(F)F)cc2C1=O ?
Result block: 0.245

Query block: Then CC(OC(=O)c1cccc(NS(C)(=O)=O)c1)C(=O)Nc1ccc(N2CCOCC2)cc1 (stereo not drawn) ?
Result block: -2.45
